Tested on: Bordetella pertussis
procedure.summary: Antibacterial activity against quinolone-susceptible Bordetella pertussis BP112 by Etest method
Assay type: functional
property: MIC (ng/mL)

Here are 4 compounds together with their reported answers.
In [3]: df
Out[3]:
                                   compound  recorded_value
0  C[C@@H]1CN(c2c(F)c(N)c3c(=O)c(C(=O)O)cn(C4CC4)c3c2F)C[C@H](C)N1               4
1  O=C(O)c1cn(C2CC2)c2cc(N3CCNCC3)c(F)cc2c1=O               8
2           CCn1cc(C(=O)O)c(=O)c2ccc(C)nc21            1000
3  CCn1cc(C(=O)O)c(=O)c2cc(F)c(N3CCNCC3)cc21              64

I. O=C(N[C@H](CO)[C@H](O)c1ccc([N+](=O)[O-])cc1)C(Cl)Cl
II. C[C@H]1COc2c(N3CCN(C)CC3)c(F)cc3c(=O)c(C(=O)O)cn1c23.C[C@H]1COc2c(N3CCN(C)CC3)c(F)cc3c(=O)c(C(=O)O)cn1c23.O
III. COc1c(N2CCNC(C)C2)c(F)cc2c(=O)c(C(=O)O)cn(C3CC3)c12 (configuration not stated)
[in] Order field: MIC | Direction: descending (largest first) # answer = labels listed in requested order
[out] I, II, III

---

System: Bordetella pertussis
procedure.summary: Antibacterial activity against […] Bordetella pertussis BP121 by Etest method
Format: functional
property: MIC (µg/mL)

P. O=C(N[C@H](CO)[C@H](O)c1ccc([N+](=O)[O-])cc1)C(Cl)Cl [CHLORAMPHENICOL]
Q. O=C(O)c1cn(C2CC2)c2cc(N3CCNCC3)c(F)cc2c1=O [CIPROFLOXACIN]
[in] Determine, for P and Q , which has the greater value of MIC. Please indicate the selected item by its label.
[out] P

I. COc1c(N2CCNC(C)C2)c(F)cc2c(=O)c(C(=O)O)cn(C3CC3)c12 (configuration not stated) [GATIFLOXACIN]
II. C[C@H]1COc2c(N3CCN(C)CC3)c(F)cc3c(=O)c(C(=O)O)cn1c23.C[C@H]1COc2c(N3CCN(C)CC3)c(F)cc3c(=O)c(C(=O)O)cn1c23.O [LEVOFLOXACIN]
[in] Which has the smaller recorded MIC, I or II ? Please indicate the selected item by its label.
[out] I
(I: 0.032 µg/mL, II: 0.064 µg/mL)

---

System: Bordetella pertussis
procedure.summary: Antibacterial activity against […] Bordetella pertussis BP99 by Etest method
Type: functional
property: MIC (mg/L)

>>> print(df.to_string())
                                   compound  property  value_units  recorded_value
0  C[C@@H]1CN(c2c(F)c(N)c3c(=O)c(C(=O)O)cn(C4CC4)c3c2F)C[C@H](C)N1       MIC         mg/L           0.032
1  COc1c(N2CCNC(C)C2)c(F)cc2c(=O)c(C(=O)O)cn(C3CC3)c12 (configuration not stated)       MIC         mg/L           0.032
2  C[C@H]1COc2c(N3CCN(C)CC3)c(F)cc3c(=O)c(C(=O)O)cn1c23.C[C@H]1COc2c(N3CCN(C)CC3)c(F)cc3c(=O)c(C(=O)O)cn1c23.O       MIC         mg/L           0.064
3  CCn1cc(C(=O)O)c(=O)c2cc(F)c(N3CCNCC3)cc21       MIC         mg/L               1

1. O=C(O)c1cn(C2CC2)c2cc(N3CCNCC3)c(F)cc2c1=O
2. O=C(N[C@H](CO)[C@H](O)c1ccc([N+](=O)[O-])cc1)C(Cl)Cl
[in] Determine, for 1 and 2 , which has the greater value of MIC. Please indicate the selected item by its label.
[out] 2
(2: 0.25 mg/L, 1: 0.125 mg/L)
